- test.description: Pharmacokinetic test in canines
- Format: in vivo
- condition.notes: dog, plasma; male beagle dogs, oral gavage 5 mg/kg
Measured AUC(0-t) by item
Report the figure in ng·h/mL without appending any unit label.

Consider the following illustrative entries.
>>> df
                                   compound  quantity_kind  result
0  O=C(COCCc1cnn[nH]1)N1Cc2cnc(NC3Cc4ccccc4C3)nc2C1 [Control compound 1, reference compound]       AUC(0-t)   10100
1  CCc1nc2c(C)cc(N3CCN(CC(=O)N4CC(O)C4)CC3)cn2c1N(C)c1nc(-c2ccc(F)cc2)c(C#N)s1 [Control compound 2, reference compound]       AUC(0-t)   14200

Please look at this compound and report its AUC(0-t): `O=C(c1cnc(NC2Cc3ccccc3C2)nc1)N1CC2(CC(OCc3c[nH]nn3)C2)C1`
9410

Given the compound `O=C(c1cnc(NC2Cc3ccccc3C2)nc1)N1CCC(COCc2cn[nH]n2)CC1` , write its reported AUC(0-t).
17600
